- assayed_target: cGMP-dependent protein kinase (Eimeria tenella)
- Sequence (Q8MMZ8 whole entry): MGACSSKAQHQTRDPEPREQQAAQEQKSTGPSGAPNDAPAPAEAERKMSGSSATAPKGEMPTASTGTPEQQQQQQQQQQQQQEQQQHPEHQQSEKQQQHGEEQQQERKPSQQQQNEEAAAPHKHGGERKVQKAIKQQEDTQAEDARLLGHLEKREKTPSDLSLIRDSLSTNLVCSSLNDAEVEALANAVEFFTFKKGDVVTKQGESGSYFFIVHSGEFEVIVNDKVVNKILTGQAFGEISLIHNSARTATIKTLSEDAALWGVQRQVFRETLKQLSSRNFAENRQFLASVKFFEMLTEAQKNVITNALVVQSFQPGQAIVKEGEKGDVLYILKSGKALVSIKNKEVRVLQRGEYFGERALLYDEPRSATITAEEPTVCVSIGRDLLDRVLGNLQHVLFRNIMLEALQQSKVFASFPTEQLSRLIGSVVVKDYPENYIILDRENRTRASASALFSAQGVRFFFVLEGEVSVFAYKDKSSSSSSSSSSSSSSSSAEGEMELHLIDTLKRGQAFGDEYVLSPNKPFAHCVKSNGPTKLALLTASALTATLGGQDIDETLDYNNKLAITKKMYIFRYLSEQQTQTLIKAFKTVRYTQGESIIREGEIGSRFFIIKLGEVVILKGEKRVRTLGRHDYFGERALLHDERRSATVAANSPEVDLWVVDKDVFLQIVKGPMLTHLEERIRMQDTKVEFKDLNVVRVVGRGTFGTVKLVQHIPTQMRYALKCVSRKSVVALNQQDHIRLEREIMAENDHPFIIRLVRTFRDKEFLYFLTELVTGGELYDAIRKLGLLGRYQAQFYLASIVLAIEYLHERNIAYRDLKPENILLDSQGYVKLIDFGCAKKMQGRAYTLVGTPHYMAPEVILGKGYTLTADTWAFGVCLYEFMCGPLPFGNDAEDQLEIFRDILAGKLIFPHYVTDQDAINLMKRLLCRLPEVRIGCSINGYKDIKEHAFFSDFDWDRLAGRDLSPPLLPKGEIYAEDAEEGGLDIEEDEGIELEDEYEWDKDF
assay_metric: IC50 (µM)
Unit µM implied. Number only.

The value of IC50 measured for the compound CC(C)=CCc1ccc(O)c(C=O)c1C(=O)c1cc(C)cc2c1OC(C(C)(C)O)CO2 (stereo unspecified) turned out to be 8.7
